Method description: qHTS Assay for inhibitors of the human cytomegalovirus (HCMV); note: % is set by controls: 0 for no effect and ±100 for the full control effect
Applied conditions: HFF cells, HCMV-luciferase reporter, 72 h; at 57.5 µM; hits give low values
About 18,000 (4.4%) of roughly 410,000 compounds were called active. Not shown: some 7% with an inconclusive outcome. Many of the other results were omitted from the sample, so actives are more common in it than they were.
Attribute: activity change, negative = inhibition
State just the number; it will be interpreted in %.

Worked cases, answers included:
## Input Give the value of activity change, negative = inhibition reported for the following: COc1cc(C(=O)N(Cc2ccc(C(C)C)cc2)C2CCS(=O)(=O)C2)cc(OC)c1OC (stereo not given)
## Output 11.7

## Input Give the value of activity change, negative = inhibition reported for the following: "O=C(Nc1cccc(-c2nc3ccccc3o2)c1)c1cccc(Br)c1"
## Output -11.9

Next:
## Input Give the value of activity change, negative = inhibition reported for the following: Cc1ccc(C)c(N2CCN(S(=O)(=O)c3ccc4c(c3)C(C(C)C)C(=O)N4)CC2)c1 (stereo not given)
## Output -24.7

## Input Give the value of activity change, negative = inhibition reported for the following: "O=C1C=C(c2ccc(Cl)cc2)C(=O)N1Nc1ccccc1"
## Output -97.6

## Input Give the value of activity change, negative = inhibition reported for the following: "CCCCC(=O)OC1=CN(Cc2ccccc2)S(=O)(=O)c2ccccc21"
## Output -6.62

###

Method description: qHTS Assay for inhibitors of the human cytomegalovirus (HCMV); note: % is set by controls: 0 for no effect and ±100 for the full control effect
Applied conditions: HFF cells, HCMV-luciferase reporter, 72 h; at 57.5 µM
Hit rate of the full screen: of about 410,000 compounds, about 18,000 (4.4%) were called active. Roughly 7% stayed inconclusive and do not appear here. Rule as the data show it: active = activity change below about -60%; inconclusive = no clear call, values can overlap the other calls; inactive = above about -39%. The full list was thinned out, with actives kept by preference.
The reply should be one of these categories: True for active, False for inactive

For orientation, consider the following solved cases.
## Input Tell me the assay call for "O=C(NCC12CC3CC(CC(C3)C1)C2)c1cc2nc(-c3ccccc3)cc(C(F)(F)F)n2n1" please.
## Output False

## Input Tell me the assay call for "O=Nc1c(O)cc(O)c2ccccc12" please.
## Output False

## Input Tell me the assay call for "CCN(C(=O)CSc1cccc[n+]1[O-])c1ccccc1" please.
## Output False

Consider the record given below.
## Input Tell me the assay call for "O=C(NN=Cc1ccccc1O)NN=Cc1ccccc1O" please.
## Output True

###

Method description: qHTS Assay for inhibitors of the human cytomegalovirus (HCMV); note: % is set by controls: 0 for no effect and ±100 for the full control effect
Applied conditions: HFF cells, HCMV-luciferase reporter, 72 h; at 57.5 µM; hits give low values
Experimental: NCGC Assay Overview: Infection with human cytomegalovirus (HCMV) continues to pose significant threats for pregnant women and immunocompromised hosts. […] This is a cell-based assay for HCMV inhibition in HFFs cells. […] At 72 h post infection cell lysates were collected and luciferase activity was determined using the Glomax-Multi + Detection System (Promega, Madison, WI). […]
The whole screen tested about 410,000 compounds, of which about 18,000 (4.4%) were called active. About 7% were inconclusive and are not listed. Only a selection was taken, and actives are over-represented in it overall.
Reported endpoint: activity change, negative = inhibition (%)
State just the number; it will be interpreted in %.

Worked cases, answers included:
## Input Give the value of activity change, negative = inhibition reported for the following: "COc1cc2c(cc1OC)C(/C=C/c1ccco1)=NCC2"
## Output -61.3

## Input Give the value of activity change, negative = inhibition reported for the following: "CC(=O)OC[C@@H]1CN(Cc2ccccc2)C[C@H](n2cnc3c(NCc4ccco4)ncnc32)O1"
## Output -0.673

## Input Give the value of activity change, negative = inhibition reported for the following: "COc1ccc(NC(=O)CN(C)C(=O)c2n[nH]c3ccccc23)cc1"
## Output 5.1

## Input Give the value of activity change, negative = inhibition reported for the following: "CCOc1ccc(CCNC(=O)c2c(C)oc3ncn(C)c(=O)c23)cc1"
## Output -13.7

Next:
## Input Give the value of activity change, negative = inhibition reported for the following: Cc1ccc(CNC(=O)C2CC(c3ccccc3[N+](=O)[O-])=NO2)o1 (stereo unspecified)
## Output -11.5

## Input Give the value of activity change, negative = inhibition reported for the following: "COc1cccc(CNC(=O)Cc2csc3nc(-c4ccccc4)cn23)c1"
## Output -6.98

## Input Give the value of activity change, negative = inhibition reported for the following: COC(=O)c1c(NC(=O)C(C)Oc2ccc(Cl)c(C)c2)sc(C)c1C (stereo unspecified)
## Output 24.4

## Input Give the value of activity change, negative = inhibition reported for the following: "COc1ccccc1Nc1nc(N)nc(N)c1S(=O)(=O)c1ccccc1"
## Output 21.5

## Input Give the value of activity change, negative = inhibition reported for the following: "O=C(CCCCn1c(=O)c2ccccc2n(CC(=O)Nc2cccc(C(F)(F)F)c2)c1=O)NCc1ccc2c(c1)OCO2"
## Output -22.6

## Input Give the value of activity change, negative = inhibition reported for the following: "O=C(Nc1ccc(F)cc1)Nc1nnc([C@H]2C[C@H](O)[C@@H](CO)O2)s1"
## Output 30.2
